In this section we review reported BACE-1 activity, Recovered (%) values for a set of compounds.
Biological target: Recombinant human BACE-1 (rhBACE-1) (Homo sapiens, UniProt P56817)
Construct: purchased R&D Systems #ES004 and #931-AS, respectively (so in the source)
Sequence (P56817 46-457 limits assumed): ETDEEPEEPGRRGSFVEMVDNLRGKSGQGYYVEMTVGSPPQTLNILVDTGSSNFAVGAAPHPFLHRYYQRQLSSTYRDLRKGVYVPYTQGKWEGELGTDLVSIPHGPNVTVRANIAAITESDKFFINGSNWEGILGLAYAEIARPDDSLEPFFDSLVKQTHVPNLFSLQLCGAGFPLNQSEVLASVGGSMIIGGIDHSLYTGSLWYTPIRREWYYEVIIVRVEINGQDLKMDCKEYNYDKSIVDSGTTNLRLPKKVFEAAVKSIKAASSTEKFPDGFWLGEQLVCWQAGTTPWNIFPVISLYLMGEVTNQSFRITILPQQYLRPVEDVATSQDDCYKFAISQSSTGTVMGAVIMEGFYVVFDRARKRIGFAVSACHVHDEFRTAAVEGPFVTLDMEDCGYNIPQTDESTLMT
Experiment: Proteolytic cleavage of APP (glyco)peptides by BACE-1, RP-HPLC peak integration
Assay type: biochemical
Details: 100 μM substrate, 50 nM rhBACE-1, 0.1 M sodium acetate pH 4.0, 24 h, 37°C, dark; RP-HPLC peak integration at 214 nm, averaged from two injections, SD <5%
Description: All APP-based substrates were prepared as 10 mM stocks in DMSO. […] The identity of intact and cleaved (N- and C-terminal) fragments of (glyco)peptides in the absence and presence of BACE-1 (β-secretase) was confirmed by MALDI-TOF and their percentages were evaluated by the integration of the RP-HPLC peaks (averaged from two injections). […]
All answers are understood in %, so give the number only.

Known results for compounds:
[[record]]
smiles_entry = "CC[C@H](C)[C@H](NC(=O)[C@@H](N)CCC(=O)O)C(=O)N[C@@H](CO[C@H]1O[C@H](CO)[C@H](O)[C@H](O)[C@H]1NC(C)=O)C(=O)N[C@@H](CCC(=O)O)C(=O)N[C@H](C(=O)N[C@@H](CCCCN)C(=O)N[C@@H](CCSC)C(=O)N[C@@H](CC(=O)O)C(=O)N[C@@H](C)C(=O)N[C@@H](CCC(=O)O)C(=O)N[C@@H](Cc1ccccc1)C(=O)N[C@@H](CCCNC(=N)N)C(=O)N[C@@H](Cc1c[nH]cn1)C(=O)N[C@@H](CC(=O)O)C(=O)N[C@@H](CO)C(=O)NCC(N)=O)C(C)C"
unit_text = "%"
reported_value = 98.6

[[record]]
smiles_entry = "CC[C@H](C)[C@H](NC(=O)[C@@H](N)CCC(=O)O)C(=O)N[C@@H](CO)C(=O)N[C@@H](CCC(=O)O)C(=O)N[C@H](C(=O)N[C@@H](CC(N)=O)C(=O)N[C@@H](CC(C)C)C(=O)N[C@@H](CC(=O)O)C(=O)N[C@@H](C)C(=O)N[C@@H](CCC(=O)O)C(=O)N[C@@H](Cc1ccccc1)C(=O)N[C@@H](CCCNC(=N)N)C(=O)N[C@@H](Cc1c[nH]cn1)C(=O)N[C@@H](CC(=O)O)C(=O)N[C@@H](CO)C(=O)NCC(N)=O)C(C)C"
unit_text = "%"
reported_value = 3.82

[[record]]
smiles_entry = "CC[C@H](C)[C@H](NC(=O)[C@@H](N)CCC(=O)O)C(=O)N[C@@H](CO[C@H]1O[C@H](CO)[C@H](O)[C@H](O)[C@H]1NC(C)=O)C(=O)N[C@@H](CCC(=O)O)C(=O)N[C@H](C(=O)N[C@@H](CC(N)=O)C(=O)N[C@@H](CC(C)C)C(=O)N[C@@H](CC(=O)O)C(=O)N[C@@H](C)C(=O)N[C@@H](CCC(=O)O)C(=O)N[C@@H](Cc1ccccc1)C(=O)N[C@@H](CCCNC(=N)N)C(=O)N[C@@H](Cc1c[nH]cn1)C(=O)N[C@@H](CC(=O)O)C(=O)N[C@@H](CO)C(=O)NCC(N)=O)C(C)C"
unit_text = "%"
reported_value = 7.02


Now examine the next entry.
Please provide the recorded BACE-1 activity, Recovered (%) for `CC[C@H](C)[C@H](NC(=O)[C@@H](N)CCC(=O)O)C(=O)N[C@@H](CO)C(=O)N[C@@H](CCC(=O)O)C(=O)N[C@H](C(=O)N[C@@H](CCCCN)C(=O)N[C@@H](CCSC)C(=O)N[C@@H](CC(=O)O)C(=O)N[C@@H](C)C(=O)N[C@@H](CCC(=O)O)C(=O)N[C@@H](Cc1ccccc1)C(=O)N[C@@H](CCCNC(=N)N)C(=O)N[C@@H](Cc1c[nH]cn1)C(=O)N[C@@H](CC(=O)O)C(=O)N[C@@H](CO)C(=O)NCC(N)=O)C(C)C` , tested on Recombinant human BACE-1 (rhBACE-1) (Homo sapiens, UniProt P56817).
95.5
